experiment: Acute toxicity, DL 50 in mice (Litchfield and Wilcoxon method); type: in vivo, souris; conditions: mouse, in vivo; ip.; DL 50 and its upper and lower limits for p = 0,05
MEASUREMENT_TYPE: LD50 (mg/kg)

[
  {
    "COMPOUND": "c1ccc2c(c1)CC1c3ccccc3CCN1C2 (centres unmarked) [STB0, reference compound]",
    "UNIT_NAME": "mg/kg",
    "RECORDED_MEASUREMENT": 262
  },
  {
    "COMPOUND": "O=C(Cc1ccccc1)Oc1ccc2c(c1)CCN1Cc3ccccc3CC21 (centres unmarked) [STB69]",
    "UNIT_NAME": "mg/kg",
    "RECORDED_MEASUREMENT": 378
  }
]
